experiment: Metabolite profiling by HPLC radiochromatography in plasma, urine and faeces
Format: in vivo, human
reportedConditions: AUC0-t (unchanged drug or metabolite)/AUC0-48 (TRA) * 100%
readoutName: Plasma (% AUC relative to TRA); share of circulating radioactivity (%)
One number for each entry, in %.

CCOc1cc([C@@H](CS(C)(=O)=O)N2C(=O)c3cccc(N)c3C2=O)ccc1OC1OC(C(=O)O)C(O)C(O)C1O (some centres unmarked) [Metabolite M14]    4.9
CCOc1cc([C@@H](CS(C)(=O)=O)N2C(=O)c3cccc(NC(C)=O)c3C2=O)ccc1O[C@@H]1O[C@H](C(=O)O)[C@@H](O)[C@H](O)[C@H]1O [Metabolite M12, O-desmethyl apremilast glucuronide]    38.7
CCOc1cc([C@@H](CS(C)(=O)=O)N2C(=O)c3cccc(NC(=O)COC4OC(C(=O)O)C(O)C(O)C4O)c3C2=O)ccc1OC (some centres unmarked) [Metabolite M16]    6.6

Prompt: # get_value(readout='Plasma (% AUC relative to TRA); share of circulating radioactivity', item= COc1ccc([C@@H](CS(C)(=O)=O)N2C(=O)c3cccc(NC(C)=O)c3C2=O)cc1OC1OC(C(=O)O)C(O)C(O)C1O (some centres unmarked) [Metabolite M13] )
Response: 2.4

----------
experiment: Metabolite profiling by HPLC radiochromatography in plasma, urine and faeces
Format: in vivo, human
reportedConditions: faeces collected up to 96-h post-dose
readoutName: % of dose excreted, faeces

// known answers, use as guide
CC(=O)Nc1cccc(C(=O)O)c1C(=O)O [Metabolite M18, 3-acetamide-phthalic acid]    1.4 % of dose
CCOc1cc([C@@H](CS(C)(=O)=O)NC(=O)c2cccc(NC(C)=O)c2C(=O)O)ccc1OC [M1/M2]    0.5 % of dose
CCOc1cc([C@@H](CS(C)(=O)=O)N2C(=O)c3cccc(NC(=O)CO)c3C2=O)ccc1O [Metabolite M10]    1.3 % of dose
CCOc1cc([C@@H](CS(C)(=O)=O)N2C(=O)c3cccc(NC(=O)CO)c3C2=O)ccc1OC [Metabolite M17]    0.9 % of dose
CCOc1cc([C@@H](CS(C)(=O)=O)N2C(=O)c3cccc(N)c3C2=O)ccc1OC [Metabolite M7, N-deacetyl apremilast]    0.1 % of dose
CCOc1cc([C@@H](CS(C)(=O)=O)N2C(=O)c3cccc(N)c3C2=O)ccc1O [Metabolite M4, N-deacetylated, O-desmethyl apremilast]    2.4 % of dose

Prompt: Entry O=C(CO)Nc1cccc(C(=O)O)c1C(=O)O [Metabolite M23, hydroxy 3-acetamide-phthalic acid] : reported % of dose excreted, faeces = ?
Response: 3.0 % of dose

----------
experiment: Apremilast in plasma by chiral LC/MS/MS, non-compartmental PK
Assay type: in vivo, human
reportedConditions: male, human, plasma; chiral LC/MS/MS assay; single oral 20-mg dose; mean ± SD; read-out: Plasma AUC0-t
readoutName: AUC(0-t) (ng·h/mL)
Give bare numbers, in ng·h/mL.

Prompt: Record request: AUC(0-t) value, item CCOc1cc([C@@H](CS(C)(=O)=O)N2C(=O)c3cccc(NC(C)=O)c3C2=O)ccc1OC
Response: 1910

----------
experiment: Metabolite profiling by HPLC radiochromatography in plasma, urine and faeces
Type: in vivo, human
reportedConditions: faeces collected up to 96-h post-dose
readoutName: % of dose excreted, faeces

Reference set (2 entries):
CC(=O)Nc1cccc2c1C(=O)N([C@H](CS(C)(=O)=O)c1ccc(O)c(O)c1)C2=O [Metabolite M19, O-desmethyl, O-desethyl apremilast]    0.8 % of dose
CS(=O)(=O)C[C@H](c1ccc(O)c(O)c1)N1C(=O)c2cccc(N)c2C1=O [Metabolite M20]    0.5 % of dose

Prompt: Which value of % of dose excreted, faeces has been reported for COc1ccc([C@@H](CS(C)(=O)=O)NC(=O)c2cccc(NC(C)=O)c2C(=O)O)cc1O [Metabolite M22] in the records?
Response: 0.6 % of dose
